System: Nalm-6
Assay: MTT assay, Nalm-6 cells
Type: cell-based
Conditions: Homo sapiens; Nalm-6, 0.5 μM, 24 h, MTT; read-out: Viability rate
Threshold 90%: viability at 0.5 µM strictly smaller gives Yes, otherwise No.

Look over these answered cases.
{"chemical_smiles": "Cc1ccc(NC(=O)c2ccc(CN3CCN(c4ncccn4)CC3)cc2)cc1Nc1cnccn1", "qualitative_label": "No"}
{"chemical_smiles": "COc1ccc(CN2CCN(Cc3ccc(C(=O)Nc4ccc(C)c(Nc5nccc(C)n5)c4)cc3)CC2)c(OC)c1OC", "qualitative_label": "No"}
{"chemical_smiles": "Cc1ccnc(Nc2cc(NC(=O)c3ccc(CN4CCOCC4)cc3)ccc2C)n1", "qualitative_label": "No"}

Moving on to another compound below.
Given `Cc1ccnc(Nc2cc(NC(=O)c3ccc(CN4CCOCC4)cc3)ccc2C)c1` , is recorded viability at 0.5 µM strictly lower than 90%?
Yes

---

Tested on: Molt-4
Assay: MTT assay, Molt-4 cells
Assay type: cell-based
Details: Homo sapiens, MOLT-4, 24 h, Molt-4, 30 μM, read-out: Viability rate
assay_readout: viability at 30 µM (%)
Number in %, nothing else.

Please review the entries below; each comes with its answer.
{"molecule": "Cc1ccnc(Nc2cc(NC(=O)c3ccc(CN4CCOCC4)cc3)ccc2C)n1 [Compound 8]", "system_tested": "Molt-4", "viability at 30 µM / %": 85.8}
{"molecule": "COc1ccc(CN2CCN(Cc3ccc(C(=O)Nc4ccc(C)c(Nc5cc(C)ccn5)c4)cc3)CC2)c(OC)c1OC [Compound 10]", "system_tested": "Molt-4", "viability at 30 µM / %": 65.3}

Given Cc1ccc(NC(=O)c2ccc(CN3CCN(c4ncccn4)CC3)cc2)cc1Nc1cnccn1 [Compound 7] , state its recorded viability at 30 µM.
90.9

---

Assay: MTT assay, Hek293T non-leukemic control cells
Format: cell-based
Details: human, Hek293T cells (non-leukemic control cell line), 100 μM, read-out: Viability rate
assay_readout: viability at 24 h, 100 µM (%)
Number in %, nothing else.

Given COc1ccc(CN2CCN(Cc3ccc(C(=O)Nc4ccc(C)c(Nc5nccc(C)n5)c4)cc3)CC2)c(OC)c1OC [Compound 6] , state its recorded viability at 24 h, 100 µM.
47.9

Now this one: Cc1ccnc(Nc2cc(NC(=O)c3ccc(CN4CCOCC4)cc3)ccc2C)n1 [Compound 8]
66.4

Now this one: COc1ccc(CN2CCN(Cc3ccc(C(=O)Nc4ccc(C)c(Nc5cc(C)ccn5)c4)cc3)CC2)c(OC)c1OC [Compound 10]
80.7

Now this one: Cc1ccnc(Nc2cc(NC(=O)c3ccc(CN4CCOCC4)cc3)ccc2C)c1 [Compound 9]
54.8

Now this one: Cc1ccnc(Nc2cc(NC(=O)c3ccc(CN4CCN(c5ncccn5)CC4)cc3)ccc2C)n1 [Compound 5]
50.5

Now this one: Cc1ccc(NC(=O)c2ccc(CN3CCN(C)CC3)cc2)cc1Nc1nccc(-c2cccnc2)n1 [imatinib, reference compound]
42.7

Now this one: Cc1ccc(NC(=O)c2ccc(CN3CCN(c4ncccn4)CC3)cc2)cc1Nc1cnccn1 [Compound 7]
63.5

---

System: Molt-4
Experiment: MTT assay, Molt-4 cells
Format: cell-based
Details: Homo sapiens, MOLT-4, 24 h, Molt-4, 150 μM, read-out: Viability rate
Catalogue of viability at 150 µM values
Number in %, nothing else.

Please review the entries below; each comes with its answer.
{"molecule": "Cc1ccnc(Nc2cc(NC(=O)c3ccc(CN4CCOCC4)cc3)ccc2C)c1", "assay_readout": "viability at 150 µM", "result_value": 58.6}
{"molecule": "Cc1ccc(NC(=O)c2ccc(CN3CCN(C)CC3)cc2)cc1Nc1nccc(-c2cccnc2)n1 [imatinib, reference compound]", "assay_readout": "viability at 150 µM", "result_value": 29.8}
{"molecule": "Cc1ccnc(Nc2cc(NC(=O)c3ccc(CN4CCN(c5ncccn5)CC4)cc3)ccc2C)n1", "assay_readout": "viability at 150 µM", "result_value": 87.1}
{"molecule": "COc1ccc(CN2CCN(Cc3ccc(C(=O)Nc4ccc(C)c(Nc5cc(C)ccn5)c4)cc3)CC2)c(OC)c1OC", "assay_readout": "viability at 150 µM", "result_value": 40}
{"molecule": "COc1ccc(CN2CCN(Cc3ccc(C(=O)Nc4ccc(C)c(Nc5nccc(C)n5)c4)cc3)CC2)c(OC)c1OC", "assay_readout": "viability at 150 µM", "result_value": 59.9}

Given `Cc1ccnc(Nc2cc(NC(=O)c3ccc(CN4CCOCC4)cc3)ccc2C)n1` , state its recorded viability at 150 µM.
78.9

Now this one: `Cc1ccc(NC(=O)c2ccc(CN3CCN(c4ncccn4)CC3)cc2)cc1Nc1cnccn1`
90.4

---

Assay: MTT assay, Hek293T non-leukemic control cells
Format: cell-based
Conditions: human, Hek293T cells (non-leukemic control cell line), 5 μM, read-out: Viability rate
Catalogue of viability at 24 h, 5 µM values
Number in %, nothing else.

Please review the entries below; each comes with its answer.
{"compound": "COc1ccc(CN2CCN(Cc3ccc(C(=O)Nc4ccc(C)c(Nc5nccc(C)n5)c4)cc3)CC2)c(OC)c1OC [Compound 6]", "result_value": 78.5}
{"compound": "Cc1ccc(NC(=O)c2ccc(CN3CCN(C)CC3)cc2)cc1Nc1nccc(-c2cccnc2)n1 [imatinib, reference compound]", "result_value": 71.5}
{"compound": "Cc1ccnc(Nc2cc(NC(=O)c3ccc(CN4CCOCC4)cc3)ccc2C)c1 [Compound 9]", "result_value": 86.2}
{"compound": "Cc1ccc(NC(=O)c2ccc(CN3CCN(c4ncccn4)CC3)cc2)cc1Nc1cnccn1 [Compound 7]", "result_value": 81}
{"compound": "COc1ccc(CN2CCN(Cc3ccc(C(=O)Nc4ccc(C)c(Nc5cc(C)ccn5)c4)cc3)CC2)c(OC)c1OC [Compound 10]", "result_value": 79.1}

Given Cc1ccnc(Nc2cc(NC(=O)c3ccc(CN4CCN(c5ncccn5)CC4)cc3)ccc2C)n1 [Compound 5] , state its recorded viability at 24 h, 5 µM.
61

Now this one: Cc1ccnc(Nc2cc(NC(=O)c3ccc(CN4CCOCC4)cc3)ccc2C)n1 [Compound 8]
91.2

---

Catalogue of viability at 50 µM values
System: Reh
Experiment: MTT assay, Reh cells
Format: cell-based
Conditions: Homo sapiens, 24 h, 50 μM, read-out: Viability rate

{"molecule": "Cc1ccnc(Nc2cc(NC(=O)c3ccc(CN4CCOCC4)cc3)ccc2C)c1", "system_tested": "Reh", "viability at 50 µM": "88.2%"}
{"molecule": "COc1ccc(CN2CCN(Cc3ccc(C(=O)Nc4ccc(C)c(Nc5nccc(C)n5)c4)cc3)CC2)c(OC)c1OC", "system_tested": "Reh", "viability at 50 µM": "85.6%"}
{"molecule": "COc1ccc(CN2CCN(Cc3ccc(C(=O)Nc4ccc(C)c(Nc5cc(C)ccn5)c4)cc3)CC2)c(OC)c1OC", "system_tested": "Reh", "viability at 50 µM": "59.5%"}
{"molecule": "Cc1ccnc(Nc2cc(NC(=O)c3ccc(CN4CCN(c5ncccn5)CC4)cc3)ccc2C)n1", "system_tested": "Reh", "viability at 50 µM": "85.5%"}
{"molecule": "Cc1ccc(NC(=O)c2ccc(CN3CCN(c4ncccn4)CC3)cc2)cc1Nc1cnccn1", "system_tested": "Reh", "viability at 50 µM": "66.7%"}

Given Cc1ccc(NC(=O)c2ccc(CN3CCN(C)CC3)cc2)cc1Nc1nccc(-c2cccnc2)n1 [imatinib, reference compound] , state its recorded viability at 50 µM.
63.5%

Now this one: `Cc1ccnc(Nc2cc(NC(=O)c3ccc(CN4CCOCC4)cc3)ccc2C)n1`
99.4%

---

Test system: Jurkat
Experiment: MTT assay, Jurkat cells
Assay type: cell-based
Conditions: Homo sapiens, 50 μM, 24 h, read-out: Viability rate
Catalogue of viability at 50 µM values
Please give the number followed by its unit.

{"molecule": "Cc1ccc(NC(=O)c2ccc(CN3CCN(c4ncccn4)CC3)cc2)cc1Nc1cnccn1", "assay_readout": "viability at 50 µM", "result_value": "72.8%"}
{"molecule": "COc1ccc(CN2CCN(Cc3ccc(C(=O)Nc4ccc(C)c(Nc5cc(C)ccn5)c4)cc3)CC2)c(OC)c1OC", "assay_readout": "viability at 50 µM", "result_value": "61.4%"}
{"molecule": "COc1ccc(CN2CCN(Cc3ccc(C(=O)Nc4ccc(C)c(Nc5nccc(C)n5)c4)cc3)CC2)c(OC)c1OC", "assay_readout": "viability at 50 µM", "result_value": "59.1%"}
{"molecule": "Cc1ccc(NC(=O)c2ccc(CN3CCN(C)CC3)cc2)cc1Nc1nccc(-c2cccnc2)n1 [imatinib, reference compound]", "assay_readout": "viability at 50 µM", "result_value": "26.2%"}
{"molecule": "Cc1ccnc(Nc2cc(NC(=O)c3ccc(CN4CCOCC4)cc3)ccc2C)c1", "assay_readout": "viability at 50 µM", "result_value": "68.1%"}
{"molecule": "Cc1ccnc(Nc2cc(NC(=O)c3ccc(CN4CCOCC4)cc3)ccc2C)n1", "assay_readout": "viability at 50 µM", "result_value": "65.4%"}

In the following, a different molecule is considered.
Given `Cc1ccnc(Nc2cc(NC(=O)c3ccc(CN4CCN(c5ncccn5)CC4)cc3)ccc2C)n1` , state its recorded viability at 50 µM.
83.4%
